Here, each record is paired with measured protein stability index data.
B1: SFRS1 (parent)
chain: YSPRRSRGSPRYSPRHSRSRSRT

Variants of: B1
Protocol description: protein stability index of a GFP-peptide fusion (GPS, HEK-293T) (PSI 1-6); higher = more stable;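 note: lentivirally expressed fusions sorted by FACS into six bins by GFP to DsRed ratio, PSI derived from sequencing read proportions per bin multiplied by bin number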
Test conditions: c terminus: native
The response must contain the number and no unit.

Here are 3 variants together with their reported answers.
>>> result("YSPRRSRGSPRYSPRHSRSRPRT [S21P]")
4.3
>>> result("YSPRRSRGSPRYSPRWSRSRSRT [H16W]")
3.14
>>> result("YSPRRSRGSERYSPRHSRSRSRT [P10E]")
3.6

Task: GET /values?readout=protein stability index&item= YSPRRSRGSMRYSPRHSRSRSRT [P10M]
Result: 3.73

Task: Value lookup for protein stability index; key = YSPRRSRGSPRYSPRHSRSESRT [R20E]
Result: 4.48

Task: What does the data say about its protein stability index? Entry: YSPRRSRESPRYSPRHSRSRSRT [G8E]
Result: 3.44

Task: Record request: protein stability index value, item YSPRRSRGSPRYVPRHSRSRSRT [S13V]
Result: 3.37

Task: Using the record for YSPGRSRGSPRYSPRHSRSRSRT [R4G] , report its protein stability index.
Result: 3.82

Task: Dear colleague, I am looking for the recorded protein stability index of the following variant: QSPRRSRGSPRYSPRHSRSRSRT [Y1Q]
Result: 4.55

Task: Recorded protein stability index of YSPRRSRGSPRYSPRHSHSRSRT [R18H] , please.
Result: 3.28

Task: // protein stability index lookup, key: YSPRRSSGSPRYSPRHSRSRSRT [R7S]
Result: 3.4
